# Test system: Saccharomyces cerevisiae
# measurement_notes: protein stability index of tFT-peptide fusion (C-terminal peptide) (PSI (0-1 scale)); higher = more stable (slower turnover)
# protocol_conditions: genetic background: das1 deletion; temperature: 30 C
Classification scheme (protein stability index): lower range (below 0.4), middle range (0.4 to below 0.6), upper range (0.6 or more)

- sequence_content: "PPGLLPPCLLVV"
  label_class: "lower range"
- sequence_content: "WRVFRPSLRLFA"
  label_class: "middle range"
- sequence_content: "CSKGLSILLLLL"
  label_class: "middle range"
- sequence_content: "LFLPFLPTLALL"
  label_class: "upper range"
- sequence_content: "CLAWWLGRVWVC"
  label_class: "lower range"

Which bin, given its protein stability index, does "GVLLLGSYQWVG" occupy?
lower range

Which bin, given its protein stability index, does "EMPRLSKAIRVT" occupy?
lower range

Which bin, given its protein stability index, does "AKVSFYALARQY" occupy?
upper range

Which bin, given its protein stability index, does "SRNSSRYLLLVS" occupy?
middle range

Which bin, given its protein stability index, does "ARVSLSFVSVSA" occupy?
lower range

Which bin, given its protein stability index, does "ISPCLVRLWYRI" occupy?
middle range

Which bin, given its protein stability index, does "FFLLLVSVLSGW" occupy?
lower range

Which bin, given its protein stability index, does "PSPVRSSYASTL" occupy?
upper range

Which bin, given its protein stability index, does "YLAGPLARLRKF" occupy?
upper range

Which bin, given its protein stability index, does "YNTRLCTFSCML" occupy?
upper range

Which bin, given its protein stability index, does "VVTFCCARVTKI" occupy?
upper range

====

# Test system: Saccharomyces cerevisiae
# measurement_notes: protein stability index of tFT-peptide fusion (C-terminal peptide) (PSI (0-1 scale)); higher = more stable (slower turnover)
# protocol_conditions: genetic background: das1 deletion; temperature: 30 C
measurement_label: protein stability index
Reply with the value as a number alone.

Recorded protein stability index, per entry:
- sequence_content: "RSLSSRSKECSK [NOC3 C-terminal 12 aa]"
  observed: 0.71
- sequence_content: "HRSFFKDIIPEL [KIN82 C-terminal 12 aa]"
  observed: 0.723

Given the sequence TVHQLRDRGFDI [ENV9 C-terminal 12 aa] , write its reported protein stability index.
0.73

Given the sequence LLPMAFGPSHLN [CDD1 C-terminal 12 aa] , write its reported protein stability index.
0.743

Given the sequence FVKVIDYTSNGW [PBY1 C-terminal 12 aa] , write its reported protein stability index.
0.676

====

# System: Saccharomyces cerevisiae
# measurement_notes: protein stability index of tFT-peptide fusion (C-terminal peptide) (PSI (0-1 scale)); higher = more stable (slower turnover)
# protocol_conditions: genetic background: wild type; temperature: 30 C
measurement_label: protein stability index
Reply with the value as a number alone.

Recorded protein stability index, per entry:
- sequence_content: "IGGAMLSPLKVR"
  protein stability index: 0.55
- sequence_content: "KKEQRKKRQQKT"
  protein stability index: 0.696
- sequence_content: "GRPGISESGIIG"
  protein stability index: 0.71
- sequence_content: "PRPPLRPPPISP"
  protein stability index: 0.68
- sequence_content: "PPPPPPSPLPPY"
  protein stability index: 0.703

Given the sequence "LLYYMPELLILT" , write its reported protein stability index.
0.28

Given the sequence "DLKIKKNDKKKK" , write its reported protein stability index.
0.658

Given the sequence "GVFISFFFVFRF" , write its reported protein stability index.
0.308

Given the sequence "DPTPLKSLVTRP" , write its reported protein stability index.
0.64

Given the sequence "GSGAICAFGFWC" , write its reported protein stability index.
0.66

Given the sequence "ARKWVAVTVTLW" , write its reported protein stability index.
0.267

Given the sequence "VPITLRFSFLTP" , write its reported protein stability index.
0.598

Given the sequence "GGGVSFWVGVVA" , write its reported protein stability index.
0.656

Given the sequence "MVVSLVLCFWAS" , write its reported protein stability index.
0.255

Given the sequence "SWFYTQSEKTLS" , write its reported protein stability index.
0.78

Given the sequence "AFPSCCFFLSLS" , write its reported protein stability index.
0.662

Given the sequence "SFCCISSFPCWR" , write its reported protein stability index.
0.751

Given the sequence "PRLPGPAAIARR" , write its reported protein stability index.
0.671

Given the sequence "VFMPVGVGGGSC" , write its reported protein stability index.
0.678
